Values were extracted from ChEMBL document CHEMBL2406911.

Sphingosine kinase 1 (Homo sapiens, UniProt Q9NYA1) data, read-out pEC50
Sequence (Q9NYA1 whole entry): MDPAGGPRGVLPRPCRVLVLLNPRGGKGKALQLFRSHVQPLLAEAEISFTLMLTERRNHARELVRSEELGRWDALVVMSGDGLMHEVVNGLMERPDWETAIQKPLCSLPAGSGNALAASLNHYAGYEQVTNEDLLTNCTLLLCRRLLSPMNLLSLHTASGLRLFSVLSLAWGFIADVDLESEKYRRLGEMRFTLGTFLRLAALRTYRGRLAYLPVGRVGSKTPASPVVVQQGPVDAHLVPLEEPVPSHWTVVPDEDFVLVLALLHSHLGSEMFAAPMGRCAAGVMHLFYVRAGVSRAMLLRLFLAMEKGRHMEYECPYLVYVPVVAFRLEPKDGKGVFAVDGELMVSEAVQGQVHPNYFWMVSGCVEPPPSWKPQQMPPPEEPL
pEC50: −log10 of the molar value.
property label: pEC50

Some entries whose results are on file:
QUERY: Query pEC50 on Sphingosine kinase 1 (Homo sapiens, UniProt Q9NYA1) for "OC[C@H]1C[C@@H](O)CCN1CCc1ccc(Nc2nc(-c3ccccc3)cs2)cc1"
RESULT: 6.51

QUERY: I'm curious: which pEC50 was measured for "CCCCc1csc(Nc2ccc(CCN3CC[C@H](O)C[C@@H]3CO)cc2)n1" tested on Sphingosine kinase 1 (Homo sapiens, UniProt Q9NYA1)?
RESULT: 6.43

[a] OC[C@H]1C[C@@H](O)CCN1CCc1ccc(Nc2nc(-c3cccc(C(F)(F)F)c3F)cs2)cc1
[b] OC[C@H]1C[C@@H](O)CCN1CCc1ccc(Nc2nc(-c3ccc(Cl)cc3)cs2)cc1
[c] OC[C@H]1C[C@@H](O)CCN1CCc1ccc(Nc2nc(C3CCCC3)cs2)cc1
QUERY: Please put the entries in order of rising pEC50. Please express your ranking as an ordered list of the labels.
RESULT: c, a, b
